// provenance: patent US20220378931A1

Recorded pKi for the following binders
Molecular target: T1, human insulin receptor isoform B with C-terminal C9 tag (human, UniProt P06213 28-1382)
T1 construct: membranes of stably transfected HEK293 cells; also called hIR-B; human IR-B
Experiment: 125I-insulin competition SPA, hIR-B membranes, 0.1% BSA
# pKi = -log10(concentration in molar units)

Sample records with pKi:
Binder	Measurement
INS Analog 29 (other, single-chain insulin B-L2-A-L1-VHH fusion; also called Ex. 29) FVSQHLCGSHLVEALRLVCGERGFHYTPKTGGGGGGGIVEQCCHSICSLYQLENYCGGGGGQGGGGQGGGGQGGGGQGGGGQEVQLLESGGGLVQPGGSLRLSCAASGRYIDETAVAWFRQAPGKEREFVAGIGGGVDITYYADSVKGRFTISRDNSKNTLYLQMNSLRPEDTAVYYCAARPGRPLITSKVADLYPYWGQGTLVTVSSPP	6.91
INS Analog 13 (other, single-chain insulin B-L2-A-L1-VHH fusion; also called Ex. 13) FVSQHLCGSHLVEALHLVCGERGFHYTPKTGGGGGGGIVEQCCHSICSLEQLENYCGPGPAPGPAPGPAPGPAPGPAPGPAPGPAPGPAEVQLLESGGGLVQPGGSLRLSCAASGRYIDETAVAWFRQAPGKEREFVAGIGGGVDITYYADSVKGRFTISRDNSKNTLYLQMNSLRPEDTAVYYCAARPGRPLITSKVADLYPYWGQGTLVTVSSPP	6.88
INS Analog 14 (other, single-chain insulin B-L2-A-L1-VHH fusion; also called Ex. 14) FVSQHLCGSHLVEALRLVCGERGFFYTPKTGGGGGGGIVEQCCTSICSLYQLENYCGPGPAPGPAPGPAPGPAPGPAPGPAPGPAPGPAEVQLLESGGGLVQPGGSLRLSCAASGRYIDETAVAWFRQAPGKEREFVAGIGGGVDITYYADSVKGRFTISRDNSKNTLYLQMNSLRPEDTAVYYCAARPGRPLITSKVADLYPYWGQGTLVTVSSPP	6.42

Below: the item to evaluate.
Query: # input binder: INS Analog 25 (other, single-chain insulin B-L2-A-L1-VHH fusion; also called Ex. 25) FVSQHLCGSHLVEALRLVCGERGFFYTPKTGGGGGGGIVEQCCTSICSLYQLENYCGGGGGQGGGGQGGGGQGGGGQGGGGQEVQLLESGGGLVQPGGSLRLSCAASGRYIDETAVAWFRQAPGKEREFVAGIGGGVDITYYADSVKGRFTISRDNSKNTLYLQMNSLRPEDTAVYYCAARPGRPLITSKVADLYPYWGQGTLVTVSSPP ; wanted: its pKi
Response: 6.10
